FYI, the data here is from PubChem BioAssay (Tox21).

# protocol description: qHTS assay to test for compound auto fluorescence at 535 nm (green) in HEK293 cells (AID 720680)
# conditions: green autofluorescence 485/535 nm; series mostly up to 91.3 µM
# Source text: U.S. Tox21 Program National Center for Advancing Translational Sciences [NCATS] NIH Chemical Genomics Center [NCGC] U.S. Environmental Protection Agency [EPA] National Institutes of Environmental Health Sciences [NIEHS] National Toxicology Program [NTP] U.S. Food and Drug Administration [FDA] Tox21 Assay Overview: Compound auto fluorescence often interferes with screening of the compound library against various biological targets and signaling pathways. […] This assay includes the green fluorescence data. […]
Active and inactive are the calls of the source. Calls come from the whole dose curve; as a rule, active = well fitted curve in the direction sought with a large enough effect in the repeat runs; inconclusive = weak or mixed curves; inactive = flat fitted curve, though single readings scatter.
readout name: outcome

Recorded outcome, per entry:
- compound: "CCC/C=N/O"
  outcome: "inactive"
- compound: "CC(C)CON=O"
  outcome: "inactive"
- compound: "ClC(Cl)=C(Cl)C(Cl)=C(Cl)Cl"
  outcome: "inactive"
- compound: "CCCCOCCOC(C)=O"
  outcome: "inactive"
- compound: "CC(C)Nc1nc(Cl)nc(NC(C)C)n1"
  outcome: "inactive"
- compound: "NC(=O)CN1CCCC1=O"
  outcome: "inactive"

Need outcome of CSc1nc(NC(C)C)nc(NC(C)C)n1 , thanks.
inactive

Another compound to check: Cl
inactive

Another compound to check: CC(C)(O)C#N
inactive

Another compound to check: [CH3][Sn]([Cl])([Cl])[Cl]
inactive

Another compound to check: C[N+](C)(C)C
inactive

Another compound to check: Nc1ccc2ccccc2c1
inactive

Another compound to check: O=C(O)c1nn(Cc2ccc(Cl)cc2Cl)c2ccccc12
inactive

Another compound to check: ClCC(Cl)CCl
inactive

Another compound to check: O=C(O)CF
inactive

Another compound to check: CC1(C)Cc2cccc(O)c2O1
inactive

Another compound to check: CCCCC(C#N)(Cn1cncn1)c1ccc(Cl)cc1 (configuration not stated)
inactive

---

# experimental system: Voltage-gated inwardly rectifying potassium channel KCNH2 (Homo sapiens) (UniProt Q12809)
# Sequence (Q12809 whole entry, looked up): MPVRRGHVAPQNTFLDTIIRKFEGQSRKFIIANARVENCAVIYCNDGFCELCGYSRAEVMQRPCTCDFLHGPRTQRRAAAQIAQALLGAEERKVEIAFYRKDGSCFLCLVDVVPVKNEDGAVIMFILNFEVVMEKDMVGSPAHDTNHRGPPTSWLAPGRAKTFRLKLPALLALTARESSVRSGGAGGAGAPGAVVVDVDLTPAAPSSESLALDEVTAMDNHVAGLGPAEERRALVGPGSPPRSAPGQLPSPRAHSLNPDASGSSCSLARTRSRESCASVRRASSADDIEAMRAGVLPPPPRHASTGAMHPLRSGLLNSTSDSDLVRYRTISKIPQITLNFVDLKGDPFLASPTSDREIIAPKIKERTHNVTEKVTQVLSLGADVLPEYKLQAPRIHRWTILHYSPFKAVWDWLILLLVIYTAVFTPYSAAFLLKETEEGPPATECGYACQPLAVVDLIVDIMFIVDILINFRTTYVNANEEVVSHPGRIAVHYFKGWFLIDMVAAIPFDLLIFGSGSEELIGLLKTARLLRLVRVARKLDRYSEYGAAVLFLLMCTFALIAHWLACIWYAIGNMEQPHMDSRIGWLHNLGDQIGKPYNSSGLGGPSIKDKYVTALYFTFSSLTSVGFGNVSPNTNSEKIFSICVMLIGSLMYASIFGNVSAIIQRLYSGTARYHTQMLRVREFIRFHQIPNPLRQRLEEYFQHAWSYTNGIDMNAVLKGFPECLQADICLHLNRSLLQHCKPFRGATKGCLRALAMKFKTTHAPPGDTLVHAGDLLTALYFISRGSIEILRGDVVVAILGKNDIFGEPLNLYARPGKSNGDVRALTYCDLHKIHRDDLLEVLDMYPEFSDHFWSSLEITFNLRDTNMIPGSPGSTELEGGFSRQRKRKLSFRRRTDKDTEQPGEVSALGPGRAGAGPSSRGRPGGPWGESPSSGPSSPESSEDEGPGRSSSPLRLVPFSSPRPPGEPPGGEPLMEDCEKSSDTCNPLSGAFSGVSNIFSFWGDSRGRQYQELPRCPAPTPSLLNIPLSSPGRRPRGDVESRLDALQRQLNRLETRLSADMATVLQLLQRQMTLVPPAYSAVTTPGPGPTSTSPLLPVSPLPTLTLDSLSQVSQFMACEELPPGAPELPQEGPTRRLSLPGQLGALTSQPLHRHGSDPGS
# protocol description: Human Ether-a-go-go-Related Gene (hERG) channel small molecule antagonists: fluorescence cell-based qHTS assay (AID 1671200);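 note: hERG-expressing U2OS cells given a thallium stimulus after FluxOR II dye loading; nearly all actives have a fitted effect of over 50% in size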
# conditions: hERG-U2OS cells, FluxOR thallium flux fluorescence; series mostly up to 76.8 µM
Inconclusive results are not listed. Activity calls are given as the source filed them. Calls follow the shape of the dose curve; as a rule, active = well fitted inhibition curve with a large enough effect in the repeat runs; inconclusive = weak or mixed curves; inactive = flat fitted curve, though single readings scatter.
Would you mind answering with one of these outcomes? YES = active, NO = inactive

Reference set (10 entries):
- compound: "Cc1ccc(N=CN(C)C=Nc2ccc(C)cc2C)c(C)c1"
  label: "NO"
- compound: "Clc1cccc(Cl)c1"
  label: "NO"
- compound: "C[N+](C)(C)CC(=O)O"
  label: "NO"
- compound: "CC(C)(O)C(=O)Nc1ccc([N+](=O)[O-])c(C(F)(F)F)c1"
  label: "NO"
- compound: "CC(C)(C#N)N=NC(C)(C)C#N"
  label: "NO"
- compound: "C=CC(Cl)CCl (stereo not given)"
  label: "NO"
- compound: "O=P(OCCCl)(OCCCl)OCCCl"
  label: "NO"
- compound: "CC(C)(c1ccc(OCC2CO2)cc1)c1ccc(OCC2CO2)cc1 (stereo not given)"
  label: "NO"
- compound: "Cc1cc(Cl)ccc1N=CN(C)C"
  label: "NO"
- compound: "CN(C)c1nc(=O)n(C2CCCCC2)c(=O)n1C"
  label: "NO"

Returns: the outcome recorded for CC1(C)Cc2cccc(O)c2O1 in this assay.
NO

Another compound to check: N#Cc1nn(-c2c(Cl)cc(C(F)(F)F)cc2Cl)c(N)c1S(=O)C(F)(F)F (stereo not given)
NO

Another compound to check: O=NN1CCOCC1
NO

---

# protocol description: qHTS assay to identify small molecule antagonists of the estrogen related receptor signaling pathway with the pleiotropic PPARgamma coactivator (PGC) from Tox21 10K library - cell viability counter screen (AID 1224840); note: nearly all actives have a fitted effect of over 40% in size
# conditions: PGC/ERR reporter cells viability, CellTiter-Fluor, 17.5 h; series mostly up to 92.4 µM
Records with an inconclusive call do not appear. Calls of active or inactive are those of the source. Calls come from the whole dose curve; as a rule, active = well fitted cell-killing curve with a large enough effect in the repeat runs (not every such curve was filed as active); inconclusive = weak or mixed curves, or effect the other way; inactive = no such curve, though single readings can be large or run the other way.
Would you mind answering with one of these outcomes? active, inactive

Reference set (5 entries):
- compound: "C[N+](C)(C)CC(=O)O"
  label: "inactive"
- compound: "CC(C)COC(=O)c1ccccc1C(=O)OCC(C)C"
  label: "inactive"
- compound: "ClC(Cl)(Cl)c1ccccc1"
  label: "inactive"
- compound: "COc1ccc(C=O)cc1OC"
  label: "inactive"
- compound: "Nc1ncn[nH]1"
  label: "inactive"

Returns: the outcome recorded for C=C(C)C#N in this assay.
inactive

Another compound to check: CCOP(=O)(OCC)OCC
inactive

Another compound to check: CC(C)(O)C(=O)Nc1ccc([N+](=O)[O-])c(C(F)(F)F)c1
inactive

Another compound to check: CCOC(=O)c1ccccc1N
inactive

Another compound to check: NC(=O)CN1CCCC1=O
inactive

Another compound to check: ClCC(Cl)CCl
inactive

Another compound to check: Cl
inactive

Another compound to check: CSc1nc(NC(C)C)nc(NC(C)C)n1
inactive

Another compound to check: CCNc1nc(Cl)nc(NC(C)(C)C#N)n1
inactive

Another compound to check: Clc1ccc(C(Cl)(Cl)Cl)cc1
inactive

Another compound to check: CNC(=O)Oc1cccc2c1OC(C)(C)C2
inactive

Another compound to check: CC1=C(C(=O)Nc2ccccc2)SCCO1
inactive

Another compound to check: CS(=O)(=O)NC(=O)c1cc(Oc2ccc(C(F)(F)F)cc2Cl)ccc1[N+](=O)[O-]
inactive

Another compound to check: ClC(Cl)=C(Cl)C(Cl)=C(Cl)Cl
inactive

Another compound to check: CCOP(=S)(OCC)SCSC(C)(C)C
inactive

Another compound to check: Oc1ccc(Cl)cc1Cl
inactive

Another compound to check: C[N+](C)(C)C
inactive

Another compound to check: CC1(C)C(C(=O)OC(C#N)c2cccc(Oc3ccccc3)c2)C1(C)C (configuration not stated)
inactive

Another compound to check: O=C1C(Cl)=C(Cl)C(=O)c2ccccc21
inactive

Another compound to check: CC(C)(O)C#N
inactive

---

# protocol description: qHTS assay for identifying genotoxic compounds that show differential cytotoxicity against isogenic chicken DT40 cell lines with known DNA damage response pathways - Rad54/Ku70 mutant cell line (AID 743015); note: nearly all actives have a fitted effect of over 60% in size
# conditions: DT40 Rad54/Ku70 mutant viability, CellTiter-Glo, 40 h; series mostly up to 66.8 µM
Inconclusive results are not listed. Calls of active or inactive are those of the source. The call rests on the fitted dose curve; in most records, active means well fitted cell-killing curve with a large enough effect in the repeat runs; inconclusive means weak or mixed curves; inactive means no such curve, though single readings can be large or run the other way.
Would you mind answering with one of these outcomes? t (active), f (inactive)

Reference set (3 entries):
- molecule: "N#Cc1cccnc1"
  label: "f"
- molecule: "CC1(C)Cc2cccc(O)c2O1"
  label: "f"
- molecule: "CN(C)P(=O)(N(C)C)N(C)C"
  label: "f"

Returns: the outcome recorded for O=P(OCCCl)(OCCCl)OCCCl in this assay.
f

Another molecule to check: O=NN1CCOCC1
f

Another molecule to check: CC(C)=CC1C(C(=O)OCc2cccc(Oc3ccccc3)c2)C1(C)C (stereo unspecified)
f

Another molecule to check: Nc1ncn[nH]1
f

---

# experimental system: Nuclear receptor subfamily 1 group I member 2 (Homo sapiens)
# protocol description: Human pregnane X receptor (PXR) small molecule agonists, qHTS assay (AID 1346982); note: nearly all actives have a fitted effect of over 35% in size
# conditions: PXR-Luc HepG2, CYP3A4 luciferase reporter, 24 h; series mostly up to 92.4 µM
Results filed as inconclusive are left out. Activity calls are given as the source filed them. Calls follow the shape of the dose curve; as a rule, active = well fitted activation curve with a large enough effect in the repeat runs; inconclusive = weak or mixed curves; inactive = no such curve, though single readings can be large or run the other way.
Would you mind answering with one of these outcomes? active, inactive

Reference set (5 entries):
- molecule: "CCC/C=N/O"
  label: "inactive"
- molecule: "C[N+](C)(C)CC(=O)[O-]"
  label: "inactive"
- molecule: "ClC(Cl)(Cl)c1ccccc1"
  label: "inactive"
- molecule: "CNC(=O)Oc1cccc2c1OC(C)(C)C2"
  label: "inactive"
- molecule: "COP(=O)(NC(C)=O)SC (stereo not drawn)"
  label: "inactive"

Returns: the outcome recorded for CNC(=S)S in this assay.
inactive

Another molecule to check: O=C1C(Cl)=C(Cl)C(=O)c2ccccc21
inactive

Another molecule to check: N#CCCCCC#N
inactive

Another molecule to check: CCCCCCCCCCCCCl
inactive

Another molecule to check: CCCCOCCOC(C)=O
inactive

---

# protocol description: qHTS RealTime-Glo MT Cell Viability Assay in HepG2 cells - 40 hour (AID 1224870); note: nearly all actives have a fitted effect of over 50% in size
# conditions: RealTime-Glo luminescence; series mostly up to 76.8 µM
Records with an inconclusive call do not appear. Activity calls are given as the source filed them. Calls come from the whole dose curve; as a rule, active = well fitted cell-killing curve with a large enough effect in the repeat runs; inconclusive = weak or mixed curves, or effect the other way; inactive = flat fitted curve, though single readings scatter.
readout name: outcome

Recorded outcome, per entry:
- substance smiles: "O=[N+]([O-])c1ccc(Nc2ccccc2)cc1"
  outcome: "inactive"
- substance smiles: "CNC(=O)CSP(=S)(OC)OC"
  outcome: "inactive"
- substance smiles: "CCOP(=S)(OCC)OP(=S)(OCC)OCC"
  outcome: "inactive"
- substance smiles: "N#CCCCCC#N"
  outcome: "inactive"
- substance smiles: "O=C(O)c1nn(Cc2ccc(Cl)cc2Cl)c2ccccc12"
  outcome: "inactive"
- substance smiles: "ClC(Cl)=C(Cl)C(Cl)=C(Cl)Cl"
  outcome: "inactive"
- substance smiles: "c1ccc2c(c1)Nc1ccccc1S2"
  outcome: "inactive"

From here, focus on the item given below.
Need outcome of CCCCSP(=O)(SCCCC)SCCCC , thanks.
inactive
